Biological target: T1, C-terminal fragment of CD92 (FNfn10 cleaved in the CD loop) (human, UniProt P02751 1578-1631)
T1 construct: Start at residue 43 is inferred from the N-terminal fragment ending at Asn42
T1 sequence (P02751 other isoform, or with tags, fused parts or gaps): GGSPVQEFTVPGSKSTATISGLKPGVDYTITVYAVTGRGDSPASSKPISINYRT
Assay: Trp fluorescence titrations, extrapolated to plain buffer (no urea, no glycerol)
Square brackets hold non-standard residues; d marks the D form. Ends that are not written are not given here. * marks the point of attachment. hSer(lactone) = O=C1OCC[C@@H]1N*
readoutName: Kd (nM)
All answers are understood in nM, so give the number only.

Name the reported Kd value associated with the binder VSDVPRKLQVVAATPTSLLISWDAPAVTVRYYRITYGETGGNGG[hSer(lactone)] (other, not fully specified, also called mutant CD-loop fragment)
3.6

Origin of values: patent US20130237684A1
